TARGET: purified human Hsp90
Construct: purified human Hsp90 (Stressgen, SPP-770)
TEST_DETAILS: Hsp90 binding assay: displacement of BODIPY-labeled geldanamycin measured by fluorescence polarization
CONDITIONS_USED: BODIPY-GM 10 nM, Hsp90 30 nM, overnight at room temperature; read-out: GM displacement from purified Hsp90 measured by FP IC 50
READOUT_KIND: pIC50
Give bare numbers, as −log10 of the molar value.

Known results for compounds:
CC(=O)N[C@@H](C)C(=O)N1CCC(CCn2c(Sc3cc4c(cc3Br)OCCO4)nc3c(N)ncnc32)CC1    6.70
CC(=O)N1CCC(CCn2c(Sc3cc4c(cc3Cl)OCCO4)nc3c(N)ncnc32)CC1    6.59
Nc1ncnc2c1nc(Sc1cc3c(cc1Br)OCO3)n2CCC1CCN(C2=NC(=O)CC2)CC1    6.80
CO[C@H](C)C(=O)N1CCC(CCn2c(Sc3cc4c(cc3Br)OCCO4)nc3c(N)ncnc32)CC1    7.02
COC(=O)c1cc2c(cc1Sc1nc3c(N)ncnc3n1CCC1CCN(C=O)CC1)OCO2    7.39

Fill in pIC50 for each of the 4 compounds listed.
1. CN1CCOc2cc(Br)c(Sc3nc4c(N)ncnc4n3CCC3CCN(C=O)CC3)cc21
2. C[C@H](O)C(=O)N1CCC(CCn2c(Sc3cc(O)c(O)cc3Br)nc3c(N)ncnc32)CC1
3. CC(C)(C)OC(=O)N1CCC(CCn2c(Sc3cc4c(cc3C=O)OCO4)nc3c(N)ncnc32)CC1
4. NC(=O)CCC(=O)N1CCC(CCn2c(Sc3cc4c(cc3Br)OCO4)nc3c(N)ncnc32)CC1

Response:
[6.51, 5.68, 5.72, 6.52]

* * *

TARGET: purified human Hsp90
Construct: purified human Hsp90 (Stressgen, SPP-770)
TEST_DETAILS: Hsp90 binding assay: displacement of BODIPY-labeled geldanamycin measured by fluorescence polarization
CONDITIONS_USED: BODIPY-GM 10 nM, Hsp90 30 nM, overnight at room temperature; read-out: GM displacement from purified Hsp90 measured by FP IC 50
READOUT_KIND: pIC50
Numbers only, as −log10 of the molar value.

Examples with answers:
CC(C)(C)OC(=O)N1CCC(CCn2c(Sc3cc4c(cc3Br)CCO4)nc3c(N)ncnc32)CC1 [Example Compound 172]    6.52
CC(C)C(=O)N1CCC(CCn2c(Sc3cc4c(cc3Br)OCCO4)nc3c(N)ncnc32)CC1 [compound 23]    6.71
C[C@H](O)C(=O)N1CCC(n2c(Sc3cc4c(cc3Br)OCO4)nc3c(N)ncnc32)CC1 [Example Compound 212]    6.46
CCCC(=O)N1CCC(CCn2c(Sc3cc4c(cc3Br)OCO4)nc3c(N)ncnc32)CC1 [compound 82]    6.53

Batch of 6 compounds: report pIC50 for each.
1. Nc1ncnc2c1nc(Sc1cc3c(cc1Br)OCC3)n2CCC1CCN(C=O)CC1 [Example Compound 180]
2. Nc1ncnc2c1nc(Sc1cc3c(cc1I)CCC3)n2CCC1CCN(C=O)CC1 [compound 76]
3. Nc1ncnc2c1nc(Sc1cc3c(cc1Br)OCO3)n2CCC1CCN(CCO)CC1 [Example Compound 149]
4. Cn1nnnc1N1CCC(CCn2c(Sc3cc4c(cc3C#N)OCCO4)nc3c(N)ncnc32)CC1 [compound 58]
5. C[C@@H](NC(=O)OC(C)(C)C)C(=O)N1CCC(Cn2c(Sc3cc4c(cc3Br)OCCO4)nc3c(N)ncnc32)CC1 [compound 120]
6. COc1ccc(OC(F)(F)F)c(Sc2nc3c(N)ncnc3n2CCC2CCN(C=O)CC2)c1 [compound 77]

Response:
1. 6.40
2. 7.15
3. 6.35
4. 6.74
5. 6.40
6. 6.40

I need pIC50 for every entry listed below, if you could help.
1. NC(=O)CCC(=O)N1CCC(CCn2c(Sc3cc4c(cc3Br)OCCO4)nc3c(N)ncnc32)CC1 [Example Compound 153]
2. CC1(C)CCc2cc(Br)c(Sc3nc4c(N)ncnc4n3CCC3CCN(C=O)CC3)cc21 [Example Compound 181]
3. Cc1cc(Br)c(Sc2nc3c(N)ncnc3n2CCC2CCN(C(=O)[C@H](C)O)CC2)cc1C [Example Compound 165]
4. CCOC(=O)c1cc2c(cc1Sc1nc3c(N)ncnc3n1CCC1CCNCC1)OCO2 [Example Compound 175]

Response:
1: 6.76; 2: 5.82; 3: 6.62; 4: 7.15
